Values were extracted from PubChem BioAssay AID1963983.

# System: 186277-243-T-J2-PDC multi-cell spheroid viability;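 further: spheroids exposed to compounds for seven days before viability reading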
# EXPERIMENTAL_DETAILS: Anticancer human tumor 186277-243-T-J2-PDC patient-derived colon adenocarcinoma cell line growth inhibition [PI3K]
# CONDITION_LABEL: second compound 3.16 µM; first compound 0.1 µM; stronger effect = lower value
# Excerpt: Combinatorial screen of targeted agents with the PI3K inhibitors inavolisib, alpelisib, duvelisib, and copanlisib in multi-cell type tumor spheroids A high-throughput screen of multi-cell type tumor spheroids was designed to identify active combinations of targeted small molecules and PI3K pathway inhibitors. […] Compounds. […] If the clinical Cmax for an agent had not been determined, the highest concentration tested was 10 microM. […]
One threshold, 60%, splits the recorded viability, T/C values: lower ones are True, equal or higher ones are False.

1. Cn1ncnc1[C@H]1c2n[nH]c(=O)c3cc(F)cc(c23)N[C@@H]1c1ccc(F)cc1 + Cc1nc(NC(=O)N2CCCC2C(N)=O)sc1-c1ccnc(C(C)(C)C(F)(F)F)c1    True
2. CC1(C)CCC(Nc2ncc(C(F)(F)F)c(-c3c[nH]c4c(P(C)(C)=O)c(C#N)ccc34)n2)CN1 (stereo not given) + Cc1nc(NC(=O)N2CCCC2C(N)=O)sc1-c1ccnc(C(C)(C)C(F)(F)F)c1    True
3. CC1(C)CCC(Nc2ncc(C(F)(F)F)c(-c3c[nH]c4c(P(C)(C)=O)c(C#N)ccc34)n2)CN1 (stereo not given) + CC(Nc1ncnc2nc[nH]c12)c1cc2cccc(Cl)c2c(=O)n1-c1ccccc1    False
4. CCN1CCN(Cc2ccc(Nc3ncc(F)c(-c4cc(F)c5nc(C)n(C(C)C)c5c4)n3)nc2)CC1 + CC(Nc1ncnc2nc[nH]c12)c1cc2cccc(Cl)c2c(=O)n1-c1ccccc1    False
